Value source: the supplement of paper PMC6555819

- System: PXR homodimer (NR concentration 270 nM)
- PROTOCOL_NOTES: PBM binding z-score (relative to random genomic background probes); higher = stronger binding; sequences stand for … in GC…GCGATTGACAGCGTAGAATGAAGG
Label rule, in plain words: PBM binding z-score of 2 and up is Met, under 2 is Not met.

[[record]]
sequence = "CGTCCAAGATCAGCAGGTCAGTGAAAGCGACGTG"
answer_label = "Not met"

[[record]]
sequence = "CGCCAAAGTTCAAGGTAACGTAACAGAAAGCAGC"
answer_label = "Met"

[[record]]
sequence = "TCTCGGAGGACACTAAGGTCAGAGCTTTCCAGAG"
answer_label = "Met"

[[record]]
sequence = "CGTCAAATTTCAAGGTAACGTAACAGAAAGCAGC"
answer_label = "Not met"

[[record]]
sequence = "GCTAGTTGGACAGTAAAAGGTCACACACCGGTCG"
answer_label = "Not met"

